conditions: pH 7.4
Property: logD

> print(dat)
                                    compound  property  measured.result
 1  CC(C)CC(O)C(CC1CCCCC1)NC(=O)C(Cc1cn(C)cn1)NC(=O)C(CC(=O)N1CCOCC1)Cc1ccccc1 (stereo not given)      logD             3.71
 2  CC(C)CC(O)C(CC1CCCCC1)NC(=O)C(Cc1cc[nH]n1)NC(=O)C(CC(=O)N1CCCOCC1)Cc1ccccc1 (stereo not given)      logD             4.01
 3  CC(C)CC(O)C(O)C(CC1CCCCC1)NC(=O)C(Cc1cscn1)NC(=O)C(CC(=O)CN1CCCOCC1)Cc1ccccc1 (stereo not given)      logD             3.91
 4  CC(C)CC(O)C(O)C(CC1CCCCC1)NC(=O)C(NC(=O)C(CC(=O)N1CCN(C)CC1)Cc1ccccc1)c1cc[nH]n1 (stereo not given)      logD             4.02
 5  CC(C)CC(O)C(O)C(CC1CCCCC1)NC(=O)C(NC(=O)C(CC(=O)N1CCN(C)CC1)Cc1ccccc1)c1c[nH]cn1 (stereo not given)      logD             1.66
 6  COc1ccc(CC(CC(=O)N2CCN(C)CC2)C(=O)NC(Cc2cscn2)C(=O)NC(CC2CCCCC2)C(O)C(O)CC(C)C)cc1 (stereo not given)      logD             3.38
 7  CC(C)CC(O)C(CC1CCCCC1)NC(=O)C(Cc1c[nH]cn1)NC(=O)C(CC(=O)N1CCOCC1)Cc1ccccc1 (stereo not given)      logD             3.51
 8  CC(C)CC(O)C(CC1CCCCC1)NC(=O)C(Cc1cscn1)NC(=O)C(CC(=O)N1CCOCC1)Cc1ccccc1 (stereo not given)      logD             4.27
 9  CC(C)CC(O)C(CC1CCCCC1)NC(=O)C(CN=[N+]=[N-])NC(=O)C(CC(=O)N1CCCOCC1)Cc1ccccc1 (stereo not given)      logD              4.1
10  CC(C)CC(O)C(CC1CCCCC1)NC(=O)C(Cn1ccnc1)NC(=O)C(CC(=O)N1CCOCC1)Cc1ccccc1 (stereo not given)      logD             3.79
